Let's go through some IC50 measurements on Serine/threonine-protein kinase Chk2 (Homo sapiens, UniProt O96017) together.
Sequence (O96017 whole entry): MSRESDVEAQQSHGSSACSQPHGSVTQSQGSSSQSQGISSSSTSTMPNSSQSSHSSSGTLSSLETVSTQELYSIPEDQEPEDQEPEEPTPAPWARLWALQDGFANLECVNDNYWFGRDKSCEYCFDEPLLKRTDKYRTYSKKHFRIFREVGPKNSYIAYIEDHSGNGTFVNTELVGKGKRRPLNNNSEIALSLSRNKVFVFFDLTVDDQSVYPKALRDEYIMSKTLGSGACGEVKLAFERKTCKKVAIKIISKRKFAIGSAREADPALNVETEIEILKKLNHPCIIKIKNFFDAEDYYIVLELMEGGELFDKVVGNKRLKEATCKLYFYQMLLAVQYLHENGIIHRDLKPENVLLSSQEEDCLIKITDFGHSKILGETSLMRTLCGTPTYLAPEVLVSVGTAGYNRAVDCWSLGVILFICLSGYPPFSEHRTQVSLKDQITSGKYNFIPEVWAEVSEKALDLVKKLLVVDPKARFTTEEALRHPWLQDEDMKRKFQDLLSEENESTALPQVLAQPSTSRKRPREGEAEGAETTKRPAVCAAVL
One number for each entry, in µM.

See these solved cases before continuing.
# smiles_repr, target_or_system, IC50 / µM
records = [
    ("COc1nc(C)ccc1-c1cc(Nc2cnc3ccn(C4CCN(C)CC4)c3n2)n[nH]1", "Serine/threonine-protein kinase Chk2 (Homo sapiens, UniProt O96017)", 0.257),
    ("COc1nc(C)ccc1-c1cc(Nc2cnc3c(F)cn(C4CCN(C)CC4)c3n2)n[nH]1", "Serine/threonine-protein kinase Chk2 (Homo sapiens, UniProt O96017)", 0.166),
    ("COc1nc(C)ccc1-c1cc(Nc2cnc3ccn(CC4CCNCC4)c3n2)n[nH]1", "Serine/threonine-protein kinase Chk2 (Homo sapiens, UniProt O96017)", 1.97),
    ("COc1cccc(F)c1-c1cc(Nc2cnc3ccn(C4CCNCC4)c3n2)n[nH]1", "Serine/threonine-protein kinase Chk2 (Homo sapiens, UniProt O96017)", 0.013),
]

Please give IC50, item by item, for the list that follows.
1. COc1nc(C)ccc1-c1cc(Nc2cnc3ccn(C4CCNCC4)c3n2)n[nH]1
2. COc1nc(C)ccc1-c1cc(Nc2cnc3c(F)cn(C4CCNCC4)c3n2)n[nH]1
3. COc1cccc(F)c1-c1[nH]nc(Nc2cnc3ccn(C4CCNCC4)c3n2)c1F

A)
[0.079, 0.028, 0.024]

Q) // lookup IC50 | system=Serine/threonine-protein kinase Chk2 (Homo sapiens, UniProt O96017) | key= COc1cccc(F)c1-c1cc(Nc2cnc3c(F)cn(C4CCNCC4)c3n2)n[nH]1
A) 0.002

---

Target: Serine/threonine-protein kinase Chk1 (Homo sapiens, UniProt O14757)
Sequence (O14757 whole entry): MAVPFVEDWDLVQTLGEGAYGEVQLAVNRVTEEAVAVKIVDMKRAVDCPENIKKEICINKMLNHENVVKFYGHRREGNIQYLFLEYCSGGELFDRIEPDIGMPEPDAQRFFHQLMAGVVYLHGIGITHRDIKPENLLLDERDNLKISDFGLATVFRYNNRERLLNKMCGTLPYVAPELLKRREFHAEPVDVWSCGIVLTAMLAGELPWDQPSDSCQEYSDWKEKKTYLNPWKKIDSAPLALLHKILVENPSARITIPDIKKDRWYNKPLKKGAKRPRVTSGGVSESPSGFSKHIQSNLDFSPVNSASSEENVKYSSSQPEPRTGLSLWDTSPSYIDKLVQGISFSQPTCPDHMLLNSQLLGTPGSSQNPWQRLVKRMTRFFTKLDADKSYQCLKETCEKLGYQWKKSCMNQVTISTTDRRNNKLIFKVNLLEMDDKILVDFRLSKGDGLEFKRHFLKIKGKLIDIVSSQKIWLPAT
Assay: Activity Test of Compounds in the CHK1 Coupled Reaction System: The compounds of the present disclosure used in the experiments were self-prepared, and their chemical names and structural formulas were shown in the preparation embodiments of each compound. The determination mixture containing embodiment compounds of the present disclosure and Chk1 and Chk2 kinases were incubated in a microtiter plate, and CHK1 inhibitor activity of compounds were tested by monitoring the phosphorylation of Chk1 and Chk2 kinases on a synthetic peptide substrate with a specific amino acid sequence ([…], SEQ ID NO: 1). The test was carried out on the KinaseProfiler™ protein kinase activity detection platform of Eurofins, and the experimental results were provided by the company. The procedure was as follows: Chk1 and Chk2 kinases were diluted with 20 mM MOPS (morpholinpropane sulfonic acid), 1 mM EDTA (ethylenediaminetetraacetic acid), 0.04% Brij-35, 5% glycerol, 0.1% 2-mercaptoethanol, 1 mg/mL BSA (bovine serum albumin) and added to the reaction system, and the reaction system contained the embodiment compounds, 8 mM MOPS pH 7.0, 0.2 mM EDTA, 200 sM polypeptide substrate ([…], SEQ ID NO: 1), 10 mM magnesium acetate and a certain concentration of [γ-33P]-ATP (the strength was about 500 cpm/pmol). A mixture solution of Mg2′ and ATP (adenosine triphosphate) was added to initiate the reaction and the reaction solution was incubated at room temperature for 40 min. 0.5% Phosphate buffer was added to terminate the reaction. 10 μL of the reaction solution was filtered four times on a continuous filter P30, washed three times with 0.425 phosphate buffer, and once with methanol, each wash for 4 min. The value was read with scintillation counting method after drying.
quantity_name: IC50

# smiles_repr, result
rows = [
    ("COc1nc(C)ccc1-c1cc(Nc2cnc3ccn(CC4CCNCC4)c3n2)n[nH]1", "5 nM"),
]

Q) // lookup IC50 | system=Serine/threonine-protein kinase Chk1 (Homo sapiens, UniProt O14757) | key= COc1cccc(F)c1-c1cc(Nc2cnc3c(F)cn(C4CCNCC4)c3n2)n[nH]1
A) < 1 nM
